subject-of-test: phosphorylated BTK in Ramos cells (Homo sapiens (Human))
protocol: Determination of phosphorylated BTK in Ramos cells (BTK phospho-Y223 HTRF)
assay-setup: anti-human IgM + hydrogen peroxide stimulation
Sorting guide: entries reporting IC50 beneath 3 nM go in the true pile, the rest go in the false pile.

Query: Consider CCN(CCOC)c1ccc(Nc2cc(-c3ccnc(-n4ccn5c6c(cc5c4=O)CC(C)(C)C6)c3CO)cn(C)c2=O)nc1 [Compound 1] . Does its IC50 lie strictly below 3 nM?
Reply: false

Query: API: query returns whether the compound falls strictly under 3 nM in IC50. Query: C[C@H]1CN(C2CCOC2)CCN1c1ccc(Nc2cc(-c3ccnc(-n4ccn5c6c(cc5c4=O)CC(C)(C)C6)c3CO)cn(C)c2=O)nc1 (stereo partly shown) [Compound 66]
Reply: true

Query: In the record for C[C@H]1CN(C2COC2)CCN1c1ccc(Nc2cc(-c3ccnc(-n4ccn5c6c(c(F)c5c4=O)CCCC6)c3CO)cn(C)c2=O)nc1 [Compound 161] , is IC50 less than 3 nM?
Reply: false

Query: Would you kindly verify if IC50 of COCCN1CCn2nc(Nc3cc(-c4ccnc(-n5ccn6c7c(c(F)c6c5=O)CCCC7)c4CO)cn(C)c3=O)cc2C1 [Compound 167] is strictly less than 3 nM?
Reply: false

Query: Please state whether IC50 is below 3 nM for Cc1nn(-c2nccc(-c3cc(Nc4cc5n(n4)CCN(C4COC4)C5)c(=O)n(C)c3)c2CO)c(=O)c2cc3c(n12)CC(C)(C)C3 [Compound 164]
Reply: false

Query: Answer whether the compound [2H]C(O)c1c(-c2cc(Nc3ccc(N4CCN(C5COC5)C[C@@H]4C)cn3)c(=O)n(C)c2)ccnc1-n1ccn2c3c(cc2c1=O)CC(C)(C)C3 (stereo partly shown) [Compound 100] has IC50 strictly less than 3 nM
Reply: true

Query: Criterion: IC50 strictly below 3 nM. Is it met by C[C@H]1CN(C#N)CCN1c1ccc(Nc2cc(-c3ccnc(-n4ccn5c6c(cc5c4=O)CC(C)(C)C6)c3CO)cn(C)c2=O)nc1 [Compound 108] ?
Reply: true

Query: IC50 under 3 nM? Item: COCC(C)n1cc(Nc2nc(-c3ccnc(-n4ccn5c6c(cc5c4=O)CC(C)(C)C6)c3CO)cn(C)c2=O)nn1 (stereo not shown) [Compound 42]
Reply: false

Query: API: query returns whether the compound falls strictly under 3 nM in IC50. Query: Cc1ccc(Nc2cc(-c3ccnc(-n4ncn5c6c(cc5c4=O)CC(C)(C)C6)c3CO)cn(C)c2=O)nn1 [Compound 132]
Reply: false

----------
subject-of-test: phosphorylated BTK in Ramos cells (Homo sapiens (Human), UniProt Q06187)
Sequence (Q06187 whole entry): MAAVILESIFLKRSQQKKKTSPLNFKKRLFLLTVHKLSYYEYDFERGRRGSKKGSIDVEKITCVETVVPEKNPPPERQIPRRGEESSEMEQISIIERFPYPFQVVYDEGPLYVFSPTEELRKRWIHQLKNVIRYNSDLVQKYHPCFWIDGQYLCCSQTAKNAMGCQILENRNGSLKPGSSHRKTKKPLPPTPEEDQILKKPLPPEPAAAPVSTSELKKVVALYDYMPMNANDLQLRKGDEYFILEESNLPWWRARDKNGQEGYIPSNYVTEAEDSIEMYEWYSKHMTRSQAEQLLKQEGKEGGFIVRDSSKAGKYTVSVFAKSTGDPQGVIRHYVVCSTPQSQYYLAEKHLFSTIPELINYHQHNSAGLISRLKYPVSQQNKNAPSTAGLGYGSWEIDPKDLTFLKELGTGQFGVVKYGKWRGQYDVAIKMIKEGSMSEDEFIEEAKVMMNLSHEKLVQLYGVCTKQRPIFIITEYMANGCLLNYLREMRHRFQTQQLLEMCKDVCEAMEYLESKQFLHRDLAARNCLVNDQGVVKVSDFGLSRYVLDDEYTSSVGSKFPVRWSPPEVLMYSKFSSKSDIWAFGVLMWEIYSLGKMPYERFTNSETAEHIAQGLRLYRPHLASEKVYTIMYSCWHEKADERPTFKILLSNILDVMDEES
protocol: Determination of phosphorylated BTK in Ramos cells (BTK phospho-Y223 HTRF)
assay-setup: anti-human IgM + hydrogen peroxide stimulation
Task for the reader: assign each of the following molecules its reported IC50.

In plain terms, `Cn1cc(-c2ccnc(-n3ccn4c5c(cc4c3=O)CC(C)(C)C5)c2CO)cc(Nc2ccc(N[C@@H]3CC[C@@H](CO)OC3)cn2)c1=O` has a documented IC50 of 5 nM

Sample `Cc1cc(Nc2cc(-c3ccnc(-n4ccn5c6c(cc5c4=O)CC(C)(C)C6)c3CO)cn(C)c2=O)nn1C` ; IC50 observed: 2 nM

Value of IC50 reported for the molecule `Cc1nn(-c2nccc(-c3cc(Nc4ccc(N5CCN(C6COC6)C[C@@H]5C)cn4)c(=O)n(C)c3)c2CO)c(=O)c2cc3c(n12)CC(C)(C)C3` is 6 nM

GET /value?item= `Cn1ccc(Nc2cc(-c3ccnc(-n4ccn5c6c(cc5c4=O)CC(C)(C)C6)c3CO)cn(C)c2=O)n1` &field=IC50 returns 2 nM

----------
subject-of-test: BTK recombinant protein (Homo sapiens (Human))
Sequence (Q06187 whole entry): as above
protocol: Determination of biochemical BTK (Z'-LYTE kinase assay)
Please note: IC50 exactly at 8 nM is class 0. Only values below 8 nM get class 1.

Query: Does the reported IC50 of the following compound sit strictly below 8 nM? `C[C@@H]1CN(c2ccc(Nc3cc(-c4ccnc(-n5ccn6c7c(cc6c5=O)CC(C)(C)C7)c4CO)cn(C)c3=O)nn2)[C@@H](C)CN1C1COC1`
Reply: class 0

Query: Given `C[C@H]1CN(C2COC2)CCN1c1ccc(Nc2cc(-c3ncnc(-n4ccn5c6c(cc5c4=O)CC(C)(C)C6)c3CO)cn(C)c2=O)nc1` , is recorded IC50 strictly lower than 8 nM?
Reply: class 0

Query: Is 8 nM strictly greater than the compound's reported IC50? compound: `C[C@H]1CN(C2COC2)CCN1c1ccc(Nc2cc(-c3ccnc(-n4ccn5c(c(F)c6ccccc65)c4=O)c3CO)cn(C)c2=O)nc1`
Reply: class 1

Query: # TODO verify IC50 < 8 nM strictly for this compound: COCCN1CCn2nc(Nc3cc(-c4ccnc(-n5ccn6c7c(cc6c5=O)CC(C)C7)c4CO)cn(C)c3=O)cc2C1 (stereo not shown)
Reply: class 0

Query: Find out if reported IC50 for `COCCN1CCn2nc(Nc3cc(-c4ccnc(-n5ncn6c7c(cc6c5=O)CC(C)(C)C7)c4CO)cn(C)c3=O)cc2C1` is less than 8 nM
Reply: class 0

Query: Given the entry `C[C@H]1CNCCN1c1ccc(Nc2cc(-c3ccnc(-n4ccn5c6c(cc5c4=O)CC(C)(C)C6)c3CO)cn(C)c2=O)nc1` , would its reported IC50 be below 8 nM?
Reply: class 1

Query: Answer whether the compound CC1c2cc(Nc3cc(-c4ccnc(-n5ncn6c7c(cc6c5=O)CC(C)(C)C7)c4CO)cn(C)c3=O)nn2CCN1C1COC1 (stereo not shown) has IC50 strictly less than 8 nM
Reply: class 1

Query: Dear colleague, could you confirm whether IC50 of `COCCN1CCn2nc(Nc3cc(-c4ccnc(-n5ccn6c7c(c(F)c6c5=O)CCCC7)c4CO)cn(C)c3=O)cc2C1` falls below 8 nM? Thanks.
Reply: class 0

Query: Strictly below 8 nM: is that where IC50 of `CC(C)n1cc(Nc2cc(-c3ccnc(-n4ccn5c6c(cc5c4=O)CC(C)(C)C6)c3CO)cn3ncnc23)nn1` sits?
Reply: class 1

Query: Lab note: IC50 threshold 8 nM. Does this compound come in strictly under it? `Cn1cc(-c2ccnc(-n3ccn4c5c(cc4c3=O)CC(C)(C)C5)c2CO)cc(N)c1=O`
Reply: class 0

Query: Lab note: IC50 threshold 8 nM. Does this compound come in strictly under it? `COCCN1C[C@H](C)N(c2ccc(Nc3cc(-c4ccnc(-n5ncn6c7c(cc6c5=O)CC(C)(C)C7)c4CO)cn(C)c3=O)nc2)C[C@H]1C`
Reply: class 0

Query: Problem: For the compound `Cn1cc(-c2ccnc(-n3ccn4c5c(cc4c3=O)CC(C)(C)C5)c2CO)cc(Nc2ccc(N3CCN(C4COC4)CC34CC4)cn2)c1=O` , is IC50 under 8 nM?
Reply: class 1

Query: Confirm or reject: IC50 of `Cn1cc(-c2ccnc(-n3ccn4c5c(cc4c3=O)CC(C)(C)C5)c2CO)cc(NC(=O)c2ccccc2)c1=O` lies strictly below 8 nM
Reply: class 0

Query: In plain terms, does `CCn1cc(-c2ccnc(-n3ncn4c5c(cc4c3=O)CC(C)(C)C5)c2CO)cc(Nc2ccc(N3C[C@@H](C)N(C4COC4)C[C@@H]3C)cn2)c1=O` come in under 8 nM for IC50?
Reply: class 0

Query: Lab note: IC50 threshold 8 nM. Does this compound come in strictly under it? `Cc1c(-c2cc(Nc3ccc(N4CCN(C5COC5)C[C@@H]4C)cn3)c(=O)n(C)c2)ccnc1-n1ccn2c3c(cc2c1=O)CC(C)(C)C3`
Reply: class 0

Query: Please determine if CC(O)CN(CCNc1ccc(Nc2cc(-c3ccnc(-n4ccn5c6c(cc5c4=O)CC(C)(C)C6)c3CO)cn(C)c2=O)nc1)C1COC1 (racemic) is below 8 nM in terms of IC50.
Reply: class 0

Query: Is it true that IC50 reported for C[C@H]1CN2CCOCC2CN1c1ccc(Nc2cc(-c3ccnc(-n4ccn5c6c(cc5c4=O)CC(C)(C)C6)c3CO)cn(C)c2=O)nc1 (mixture of isomers) is less than 8 nM?
Reply: class 0

Query: Threshold test, IC50 < 8 nM: `C[C@@H]1CN(c2ccc(Nc3cc(-c4ccnc(-n5ccn6c(c(F)c7cc(F)ccc76)c5=O)c4CO)cn(C)c3=O)nc2)[C@@H](C)CN1C1COC1`
Reply: class 1

Query: Hello, I'm reviewing records and need to know if IC50 of `COc1ccc(Nc2cc(-c3ccnc(-n4ncn5c6c(cc5c4=O)CC(C)(C)C6)c3CO)cn(C)c2=O)nc1` is below 8 nM. Could you check?
Reply: class 0

Query: I wonder whether `C[C@H]1COCCN1c1cnc(Nc2cc(-c3ccnc(-n4ncn5c6c(cc5c4=O)CC(C)(C)C6)c3CO)cn(C)c2=O)nc1` has IC50 below 8 nM. Can you tell?
Reply: class 0
